Molecular target: androgen receptor (Homo sapiens)
Sequence (P10275 1-920 Q868H): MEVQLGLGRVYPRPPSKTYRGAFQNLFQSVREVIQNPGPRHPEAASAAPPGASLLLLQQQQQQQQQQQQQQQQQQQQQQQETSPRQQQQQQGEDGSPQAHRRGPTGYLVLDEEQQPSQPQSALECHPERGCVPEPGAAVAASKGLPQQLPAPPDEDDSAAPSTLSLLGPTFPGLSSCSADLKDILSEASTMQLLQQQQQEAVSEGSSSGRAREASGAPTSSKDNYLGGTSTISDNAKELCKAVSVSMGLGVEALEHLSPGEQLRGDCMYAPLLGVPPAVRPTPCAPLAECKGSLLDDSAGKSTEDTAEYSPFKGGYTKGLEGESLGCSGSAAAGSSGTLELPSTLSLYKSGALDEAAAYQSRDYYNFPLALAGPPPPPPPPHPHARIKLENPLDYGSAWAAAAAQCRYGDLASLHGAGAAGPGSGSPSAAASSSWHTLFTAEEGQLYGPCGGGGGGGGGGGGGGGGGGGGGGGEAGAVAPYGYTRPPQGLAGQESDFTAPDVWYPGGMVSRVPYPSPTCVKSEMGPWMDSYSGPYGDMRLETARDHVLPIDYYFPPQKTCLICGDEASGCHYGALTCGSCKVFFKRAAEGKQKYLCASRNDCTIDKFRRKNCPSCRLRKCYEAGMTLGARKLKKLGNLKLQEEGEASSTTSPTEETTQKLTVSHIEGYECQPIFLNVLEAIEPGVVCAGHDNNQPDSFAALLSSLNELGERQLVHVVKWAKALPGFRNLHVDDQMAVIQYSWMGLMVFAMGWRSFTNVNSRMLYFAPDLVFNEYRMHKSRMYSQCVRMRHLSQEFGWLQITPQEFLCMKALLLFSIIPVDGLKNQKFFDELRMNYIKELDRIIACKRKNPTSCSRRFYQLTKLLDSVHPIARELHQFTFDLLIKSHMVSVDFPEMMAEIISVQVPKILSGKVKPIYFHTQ
Experiment: AR Antagonist Cell Assay (MMTV-luciferase reporter, inhibition of DHT induction)
Type: cell-based
Details: MDA-MB453-MMTV clone 54-19 cells, 100 pM DHT, 17 hr, luciferase; read-out: Cell IC50
READOUT_NAME: IC50 (nM)

P = O=c1cc(C(F)(F)F)c2cc(S(=O)(=O)N3CCSC3)ccc2[nH]1
Q = O=c1cc(C(F)(F)F)c2cc(S(=O)(=O)N3CCCCCCC3)ccc2[nH]1
Query :: Looking at recorded values for IC50, does P or Q come in lower? Kindly give the label for the entry you pick.
Result :: P

====

Reported values of pIC50 for individual entries
Molecular target: androgen receptor (Homo sapiens, UniProt P10275)
Sequence (P10275 1-920 Q868H): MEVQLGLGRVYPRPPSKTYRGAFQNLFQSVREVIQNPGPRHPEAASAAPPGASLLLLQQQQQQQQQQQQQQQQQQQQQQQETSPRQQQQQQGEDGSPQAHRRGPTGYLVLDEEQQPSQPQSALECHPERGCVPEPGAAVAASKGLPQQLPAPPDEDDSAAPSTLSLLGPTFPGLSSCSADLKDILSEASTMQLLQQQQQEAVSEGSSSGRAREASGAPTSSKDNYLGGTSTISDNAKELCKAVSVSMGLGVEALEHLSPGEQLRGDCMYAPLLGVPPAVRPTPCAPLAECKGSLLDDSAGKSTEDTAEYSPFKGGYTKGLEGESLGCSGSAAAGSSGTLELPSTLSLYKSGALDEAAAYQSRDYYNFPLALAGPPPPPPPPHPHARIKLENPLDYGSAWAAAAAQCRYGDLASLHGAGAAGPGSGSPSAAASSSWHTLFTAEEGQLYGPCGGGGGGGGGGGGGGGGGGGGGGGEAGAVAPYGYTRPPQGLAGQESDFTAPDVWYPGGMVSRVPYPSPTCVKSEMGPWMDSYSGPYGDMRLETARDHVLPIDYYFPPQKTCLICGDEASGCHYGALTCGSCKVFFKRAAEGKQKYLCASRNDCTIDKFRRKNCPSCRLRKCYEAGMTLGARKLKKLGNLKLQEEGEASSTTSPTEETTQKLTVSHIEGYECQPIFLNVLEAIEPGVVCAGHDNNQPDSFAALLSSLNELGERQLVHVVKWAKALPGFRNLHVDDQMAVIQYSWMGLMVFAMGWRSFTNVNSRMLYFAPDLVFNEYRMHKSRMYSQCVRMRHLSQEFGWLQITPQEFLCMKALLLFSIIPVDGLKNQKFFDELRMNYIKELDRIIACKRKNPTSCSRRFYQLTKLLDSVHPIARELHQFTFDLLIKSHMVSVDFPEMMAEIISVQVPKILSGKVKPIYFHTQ
Experiment: AR Antagonist Cell Assay (MMTV-luciferase reporter, inhibition of DHT induction)
Format: cell-based
Conditions: MDA-MB453-MMTV clone 54-19 cells, 100 pM DHT, 17 hr, luciferase; read-out: Cell IC50
pIC50: −log10 of the molar value.

Cn1c(=O)cc(C(F)(F)F)c2cc(S(=O)(=O)N3CCN(CCOCCO)CC3)ccc21 [Example 6]	< 5.00
O=c1cc(C(F)(F)F)c2cc(S(=O)(=O)N3CCN(c4ccccn4)CC3)ccc2[nH]1 [Example 40]	< 5.00

Okay, next one:
Query :: Hello, please tell me recorded pIC50 for this one: O=c1cc(C(F)(F)F)c2cc(S(=O)(=O)N3CCN(c4cnccn4)CC3)ccc2[nH]1 [Example 42]
Result :: < 5.00

====

molecular target: androgen receptor (Homo sapiens, UniProt P10275); assay: AR Antagonist Cell Assay (MMTV-luciferase reporter, inhibition of DHT induction); assay type: cell-based; details: MDA-MB453-MMTV clone 54-19 cells, 100 pM DHT, 17 hr, luciferase; read-out: Cell IC50
READOUT_NAME: IC50

Observe how each entry below is paired with its result.
Cn1c(=O)cc(C(F)(F)F)c2cc(S(=O)(=O)N3CCCc4ccccc43)ccc21	> 10 µM
O=c1cc(C(F)(F)F)c2cc(S(=O)(=O)N3CCN(C4CCCC4)CC3)ccc2[nH]1	> 10 µM
O=c1cc(C(F)(F)F)c2cc(S(=O)(=O)N3CCCCC3CCO)ccc2[nH]1 (stereo not shown)	> 10 µM

Okay, next one:
Query :: Hello, please tell me recorded IC50 for this one: CCN1CCN(S(=O)(=O)c2ccc3c(c2)c(C(F)(F)F)cc(=O)n3C)CC1
Result :: > 10 µM
